# Test system: Linezolid-resistant S. epidermidis Strains 1-10
# Assay details: MIC by broth microdilution (Table 5)
# Format: cell-based, Staphylococcus epidermidis
# Experimental parameters: S. epidermidis Strain 10, linezolid-resistant
Observed property: MIC

Known MIC results, listed for orientation:
Molecule: CC(=S)NC[C@@H]1CN(c2ccc(-c3nc(C)no3)cc2)C(=O)O1 [Compound A4aR]
MIC: > 128 µg/mL
//
Molecule: CC(=S)NC[C@H]1CN(c2ccc(-c3nc(C)no3)cc2)C(=O)O1 [Compound A4aS]
MIC: 8 µg/mL
//
Molecule: CC(=S)NC[C@@H]1CN(c2ccc(-c3nc(C)no3)c(F)c2)C(=O)O1 [Compound A4bR]
MIC: 128 µg/mL

Below: the item to evaluate.
**Q:** Please look at this molecule and report its MIC: CC(=S)NC[C@H]1CN(c2ccc(-c3nc(C)no3)c(F)c2)C(=O)O1 [Compound A4bS]
**A:** 4 µg/mL

###

Hi there, I'd appreciate the recorded MIC for every entry that follows.
# Test system: methicillin-susceptible S. aureus (M923)
# Assay details: MIC by broth microdilution (CLSI)
# Type: cell-based, Staphylococcus aureus
# Experimental parameters: Staphylococcus aureus; MSSA M923; racemic mixture; Table 2; read-out: MIC
# Procedure: Several well characterized for their antibiotic-susceptibility phenotype Staphylococcus aureus isolates were used for the determination of the in vitro antibacterial activity of the studied compounds. […] The antimicrobial activities, summarized in Table 2, were determined by the “gold standard” method of broth microdilution, as recommended by the Clinical Laboratory Standards Institute (CLSI) (See the Experimental Section). […]

Known MIC results, listed for orientation:
Compound: Cc1noc(-c2ccc(N3CC(CI)OC3=O)cc2)n1 (racemic) [Compound A1a]
System name: methicillin-susceptible S. aureus (M923)
Observed result: > 50 µg/mL
--
Compound: Cc1noc(-c2ccc(N3CC(Cn4cncn4)OC3=O)cc2F)n1 (racemic) [Compound A7b]
System name: methicillin-susceptible S. aureus (M923)
Observed result: > 50 µg/mL
--
Compound: Cc1noc(-c2ccc(N3CC(CN=[N+]=[N-])OC3=O)cc2)n1 (racemic) [Compound A2a]
System name: methicillin-susceptible S. aureus (M923)
Observed result: > 50 µg/mL
--
Compound: CC(=S)NCC1CN(c2ccc(-c3nc(C)no3)cc2)C(=O)O1 (racemic) [Compound A4a]
System name: methicillin-susceptible S. aureus (M923)
Observed result: 1.6 µg/mL
--
Compound: Cc1noc(-c2ccc(N3CC(Cn4cncn4)OC3=O)cc2)n1 (racemic) [Compound A7a]
System name: methicillin-susceptible S. aureus (M923)
Observed result: > 50 µg/mL

I would be grateful if you could provide MIC for each of the following entries.
1. CC(=O)NCC1CN(c2ccc(-c3nc(C)no3)c(F)c2)C(=O)O1 (racemic) [Compound A3b]
2. CC(=S)NCC1CN(c2ccc(-c3nc(C)no3)c(F)c2)C(=O)O1 (racemic) [Compound A4b]
3. Cc1noc(-c2ccc(N3CC(Cn4ccnc4)OC3=O)cc2)n1 (racemic) [Compound A6a]
4. Cc1noc(-c2ccc(N3CC(Cn4ccnc4)OC3=O)cc2F)n1 (racemic) [Compound A6b]
5. Cc1noc(-c2ccc(N3CC(Cn4cccn4)OC3=O)cc2)n1 (racemic) [Compound A5a]

**A:**
6.25 µg/mL
1.6 µg/mL
> 50 µg/mL
> 50 µg/mL
> 50 µg/mL
